The origin of these recorded values is ChEMBL document CHEMBL1126329.

# tested-target: Tissue alpha-L-fucosidase (Homo sapiens)
# Sequence (P04066 whole entry): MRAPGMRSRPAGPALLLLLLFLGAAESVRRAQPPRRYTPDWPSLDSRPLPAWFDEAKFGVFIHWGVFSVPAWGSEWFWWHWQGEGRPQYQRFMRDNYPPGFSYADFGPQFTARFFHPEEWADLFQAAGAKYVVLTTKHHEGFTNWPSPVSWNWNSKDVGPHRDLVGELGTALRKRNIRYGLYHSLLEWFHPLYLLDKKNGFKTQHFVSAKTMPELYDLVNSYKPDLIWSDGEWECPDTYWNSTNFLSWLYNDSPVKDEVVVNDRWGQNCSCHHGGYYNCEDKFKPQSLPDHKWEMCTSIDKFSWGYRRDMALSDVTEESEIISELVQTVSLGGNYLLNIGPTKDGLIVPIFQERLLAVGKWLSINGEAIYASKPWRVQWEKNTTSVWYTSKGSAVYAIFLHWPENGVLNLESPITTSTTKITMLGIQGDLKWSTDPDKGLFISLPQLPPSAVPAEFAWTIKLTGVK
# assay-name: Inhibition constant against Alpha-Fucosidase
endpoint-name: Ki (µM)
Please give a number only; it is taken to be in µM.

Enter recorded Ki with Tissue alpha-L-fucosidase (Homo sapiens) for C[C@@H]1OC=C[C@@H](O)[C@@H]1O here.
50

Specify Ki for OCC1NC(CO)C(O)C1O (configuration not stated) , system Tissue alpha-L-fucosidase (Homo sapiens).
910

Look up Tissue alpha-L-fucosidase (Homo sapiens) data: Ki of CC(=O)C1C(O)C=COC1C (configuration not stated) , then report it.
90
